These measurements were taken from the Human Domainome abundance scans (Beltran et al. 2025).

B1: E3 ubiquitin-protein ligase NEDD4, residues 836 to 881; numbered along this chain, P46934 (parent)
chain: EIEQGFLPKGWEVRHAPNGRPFFIDHNTKTTTWEDPRLKIPAHLRG

variants of: B1; experiment: abundance fitness (aPCA) (normalised: wild type 0, dead -1); higher = more abundant; growth selection in yeast, the domain comes from the species named; settings: Homo sapiens
Categories are assigned from the measured abundance fitness using these intervals: bin 0: < -0.5; bin 1: ≥ -0.5 and < -0.1; bin 2: ≥ -0.1

[[record]]
mutant_label = "H26Q"
cat = "bin 1"

[[record]]
mutant_label = "D35G"
cat = "bin 0"

[[record]]
mutant_label = "K29E"
cat = "bin 1"

[[record]]
mutant_label = "N27C"
cat = "bin 1"

[[record]]
mutant_label = "I24N"
cat = "bin 0"

[[record]]
mutant_label = "I24Q"
cat = "bin 0"

[[record]]
mutant_label = "T31W"
cat = "bin 1"

[[record]]
mutant_label = "R20H"
cat = "bin 2"

[[record]]
mutant_label = "I40W"
cat = "bin 2"

[[record]]
mutant_label = "T30K"
cat = "bin 1"

[[record]]
mutant_label = "R37K"
cat = "bin 0"

[[record]]
mutant_label = "P41Y"
cat = "bin 0"

[[record]]
mutant_label = "K29N"
cat = "bin 2"

[[record]]
mutant_label = "T30I"
cat = "bin 2"

[[record]]
mutant_label = "W33D"
cat = "bin 1"

[[record]]
mutant_label = "D25T"
cat = "bin 0"

[[record]]
mutant_label = "H43G"
cat = "bin 2"

[[record]]
mutant_label = "K39R"
cat = "bin 2"

[[record]]
mutant_label = "R20Y"
cat = "bin 0"

[[record]]
mutant_label = "K39C"
cat = "bin 2"

[[record]]
mutant_label = "D25N"
cat = "bin 1"

[[record]]
mutant_label = "F22K"
cat = "bin 0"

[[record]]
mutant_label = "I40K"
cat = "bin 2"

[[record]]
mutant_label = "L44T"
cat = "bin 2"

[[record]]
mutant_label = "L38W"
cat = "bin 1"

[[record]]
mutant_label = "I24H"
cat = "bin 0"

[[record]]
mutant_label = "T31Q"
cat = "bin 1"

[[record]]
mutant_label = "L38S"
cat = "bin 2"

[[record]]
mutant_label = "A42T"
cat = "bin 1"

[[record]]
mutant_label = "K39Y"
cat = "bin 1"

[[record]]
mutant_label = "D25Y"
cat = "bin 0"

[[record]]
mutant_label = "R20S"
cat = "bin 2"

[[record]]
mutant_label = "H43S"
cat = "bin 2"

[[record]]
mutant_label = "P41T"
cat = "bin 1"

[[record]]
mutant_label = "E34L"
cat = "bin 1"

[[record]]
mutant_label = "W33C"
cat = "bin 0"

[[record]]
mutant_label = "G19K"
cat = "bin 0"

[[record]]
mutant_label = "T31D"
cat = "bin 0"

[[record]]
mutant_label = "R20F"
cat = "bin 0"

[[record]]
mutant_label = "R45V"
cat = "bin 2"

